- Test system: TNF-α release in human blood mononuclear cells
- protocol_details: LPS-stimulated TNF-α release in PBMCs (TR-FRET)
- Assay type: cell-based
- assay_setup: PBMC, LPS stimulation 18 h, read-out: TNFα IC50
For each of the compounds below, state its pIC50.
Give bare numbers, as −log10 of the molar value.

Consider the reported pIC50 for these compounds:
[[record]]
compound = "O=Cc1ccc(/C=C/C(=O)O)cc1 [Compound 15, trans-4-formylcinnamic acid]"
value_kind = "pIC50"
result = 4.01

[[record]]
compound = "Cc1ccccc1/C=C/C(=O)O [Compound 8, trans-2-methylcinnamic acid]"
value_kind = "pIC50"
result = 3.77

[[record]]
compound = "O=C(O)/C=C/c1ccc([N+](=O)[O-])cc1 [Compound 14, trans-4-nitrocinnamic acid]"
value_kind = "pIC50"
result = 4.02


Next compound, pIC50 to be filled in.
Query block: For the compound shown here, COc1cccc(/C=C/C(=O)O)c1 [Compound 6, trans-3-methoxycinnamic acid] , give the reported pIC50.
Result block: 4.23

---

- assay_target: UniProt Q07343
- protocol_details: Human PDE4 enzyme inhibition assay ([3H]-cAMP), PDE4B
- Assay type: biochemical
- assay_setup: log(1/IC50), IC50 in μM; read-out: PDE4B pIC50 (Experimental) (converted)
For each of the molecules below, state its log10 of IC50.
A difference of one corresponds to tenfold IC50; all values are log10 with IC50 in µM.

Consider the reported log10 of IC50 for these molecules:
[[record]]
molecule = "Cc1ccccc1/C=C/C(=O)O [Compound 8, trans-2-methylcinnamic acid]"
result = 2.13

[[record]]
molecule = "COc1ccc(/C=C/C(=O)O)cc1 [Compound 7, trans-4-methoxycinnamic acid]"
result = 0.91

[[record]]
molecule = "COc1ccccc1/C=C/C(=O)O [Compound 5, trans-2-methoxycinnamic acid]"
result = 1.71

[[record]]
molecule = "COc1cccc(/C=C/C(=O)O)c1 [Compound 6, trans-3-methoxycinnamic acid]"
result = 1.52

[[record]]
molecule = "O=C(O)/C=C/c1ccc(C(F)(F)F)cc1 [Compound 19, trans-4-trifluoromethylcinnamic acid]"
result = 1.99


For every record below, what is its log10 of IC50?
1. O=C(O)/C=C/c1ccccc1Cl [Compound 11, trans-2-chlorocinnamic acid]
2. Cc1ccc(/C=C/C(=O)O)cc1 [Compound 10, trans-4-methylcinnamic acid]
3. O=C(O)/C=C/c1cccc(Cl)c1 [Compound 12, trans-3-chlorocinnamic acid]
4. O=C(O)/C=C/c1ccccc1O

Result block:
1: 1.91; 2: 1.93; 3: 1.80; 4: 1.62

For every record below, what is its log10 of IC50?
1. CN(C)c1ccc(/C=C/C(=O)O)cc1 [Compound 18, trans-4-dimethylaminocinnamic acid]
2. O=C(O)/C=C/c1cccc(O)c1
3. O=C(O)/C=C/c1ccc(Br)cc1 [Compound 17, trans-4-bromocinnamic acid]
4. Cc1cccc(/C=C/C(=O)O)c1 [Compound 9, trans-3-methylcinnamic acid]

Result block:
1: 1.52; 2: 1.45; 3: 1.94; 4: 2.01

For every record below, what is its log10 of IC50?
1. O=C(O)/C=C/c1ccc(Cl)cc1 [Compound 13, trans-4-chlorocinnamic acid]
2. O=C(O)/C=C/c1ccc([N+](=O)[O-])cc1 [Compound 14, trans-4-nitrocinnamic acid]

Result block:
1. 1.64
2. 2.05

For every record below, what is its log10 of IC50?
1. O=C(O)/C=C/c1ccc(F)cc1 [Compound 16, trans-4-fluorocinnamic acid]
2. O=Cc1ccc(/C=C/C(=O)O)cc1 [Compound 15, trans-4-formylcinnamic acid]

Result block:
1. 1.52
2. 2.00

---

For each of the compounds below, state its pIC50.
- assay_target: PDE4B (Homo sapiens)
- Sequence (Q07343 249-736 limits assumed): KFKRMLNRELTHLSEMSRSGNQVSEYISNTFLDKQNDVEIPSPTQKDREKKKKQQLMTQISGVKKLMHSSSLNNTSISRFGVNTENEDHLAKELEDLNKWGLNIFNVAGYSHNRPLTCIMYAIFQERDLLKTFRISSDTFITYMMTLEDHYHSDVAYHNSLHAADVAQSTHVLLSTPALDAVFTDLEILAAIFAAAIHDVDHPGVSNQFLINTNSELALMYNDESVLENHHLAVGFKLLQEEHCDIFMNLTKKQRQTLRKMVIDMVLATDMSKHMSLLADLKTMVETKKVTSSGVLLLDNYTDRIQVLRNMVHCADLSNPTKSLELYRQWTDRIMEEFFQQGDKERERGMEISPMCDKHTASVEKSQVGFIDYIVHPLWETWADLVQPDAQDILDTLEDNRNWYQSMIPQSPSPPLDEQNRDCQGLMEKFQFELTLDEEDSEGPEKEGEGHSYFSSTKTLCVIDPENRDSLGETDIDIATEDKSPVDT
- protocol_details: Human PDE4 enzyme inhibition assay ([3H]-cAMP), PDE4B
- Type: biochemical
- assay_setup: PDE4B, as listed in Table S4 (rounded); read-out: IC50
Numbers only, as −log10 of the molar value.

[[record]]
compound = "O=C(O)/C=C/c1ccccc1Cl [Compound 11, trans-2-chlorocinnamic acid]"
assay_target = "PDE4B (Homo sapiens)"
result = 4.09

[[record]]
compound = "O=C(O)/C=C/c1ccc(C(F)(F)F)cc1 [Compound 19, trans-4-trifluoromethylcinnamic acid]"
assay_target = "PDE4B (Homo sapiens)"
result = 4.01

[[record]]
compound = "Cc1cccc(/C=C/C(=O)O)c1 [Compound 9, trans-3-methylcinnamic acid]"
assay_target = "PDE4B (Homo sapiens)"
result = 3.99

[[record]]
compound = "O=C(O)/C=C/c1ccc(Br)cc1 [Compound 17, trans-4-bromocinnamic acid]"
assay_target = "PDE4B (Homo sapiens)"
result = 4.06

[[record]]
compound = "O=Cc1ccc(/C=C/C(=O)O)cc1 [Compound 15, trans-4-formylcinnamic acid]"
assay_target = "PDE4B (Homo sapiens)"
result = 4.00


For every record below, what is its pIC50?
1. Cc1ccc(/C=C/C(=O)O)cc1 [Compound 10, trans-4-methylcinnamic acid]
2. O=C(O)/C=C/c1ccc([N+](=O)[O-])cc1 [Compound 14, trans-4-nitrocinnamic acid]

Result block:
1. 4.07
2. 3.95
